Assay system Solute carrier family 26 member 6 (Mus musculus); read-out recorded as IC50.
Use nM as the unit, but write only the number.

Illustrative cases are given below, each with its answer.
[
  {
    "STRUCTURE_NOTATION": "CCOC(=O)c1nc(NCc2cccc(F)c2)c2c(C)noc2n1",
    "ASSAY_SYSTEM": "Solute carrier family 26 member 6 (Mus musculus)",
    "MEASUREMENT_UNITS": "nM",
    "IC50": 2200
  },
  {
    "STRUCTURE_NOTATION": "CCOC(=O)c1nc(N2CCN(c3cccc(Cl)c3)CC2)c2c(C)noc2n1",
    "ASSAY_SYSTEM": "Solute carrier family 26 member 6 (Mus musculus)",
    "MEASUREMENT_UNITS": "nM",
    "IC50": 2600
  },
  {
    "STRUCTURE_NOTATION": "CCOC(=O)c1nc(NCc2ccc(OCC)cc2)c2c(C)noc2n1",
    "ASSAY_SYSTEM": "Solute carrier family 26 member 6 (Mus musculus)",
    "MEASUREMENT_UNITS": "nM",
    "IC50": 2000
  }
]

Which IC50 reading was recorded for the molecule CCOC(=O)c1nc(NCCc2ccc(Cl)cc2)c2c(CC)noc2n1 ?
5200

Which IC50 reading was recorded for the molecule CCCOc1ccc(CNc2nc(C(=O)OCC)nc3onc(C)c23)cc1 ?
5700

Which IC50 reading was recorded for the molecule CCOC(=O)c1nc(NCc2cccnc2)c2c(-c3ccc(F)cc3)noc2n1 ?
3400

Which IC50 reading was recorded for the molecule CCOC(=O)c1nc(NCc2ccc(C)cc2)c2c(CC)noc2n1 ?
3800

Which IC50 reading was recorded for the molecule CCOC(=O)c1nc(NCc2ccc(Cl)cc2)c2c(CC)noc2n1 ?
3400

Which IC50 reading was recorded for the molecule CCOC(=O)c1nc(NCc2ccccc2Cl)c2c(C)noc2n1 ?
1100

Which IC50 reading was recorded for the molecule CCOC(=O)c1nc(NCc2ccccc2OC)c2c(CC)noc2n1 ?
1900

Which IC50 reading was recorded for the molecule CCOC(=O)c1nc(NCc2cc(C)ccc2C)c2c(C)noc2n1 ?
1500
